The values you see were collected from ChEMBL document CHEMBL3988442.

- Target System: Shiga toxin 2 (Escherichia coli O157:H7) (UniProt P09385+P09386)
- Assay Procedure: E. coli 0.157:H7 Shiga Toxin SOP - stx2 screening assay
- Assay type: functional
- Set-up: scale not given: direction of the effect not stated beside the values
- Test Parameters: 30 µM
Endpoint Label: Percent Effect (%)
Write the number in % without appending the unit.

# input Could you tell me which Percent Effect is on file for Cc1cc(CN(C)C(=O)NC2CCN(Cc3ccccc3)C2)no1 (configuration not stated) ?
# output -10.9

# input Could you tell me which Percent Effect is on file for CC(Oc1ccccc1C(F)(F)F)C(=O)NS(=O)(=O)C(C)C (configuration not stated) ?
# output 4.69

# input Could you tell me which Percent Effect is on file for Cc1cccc(OCCC(=O)N2CCN(S(=O)(=O)N(C)C)CC2)c1C ?
# output -7.47

# input Could you tell me which Percent Effect is on file for COCC(=O)N1CCO[C@H]2[C@H](OC)CC[C@@H]21 ?
# output 2.73

# input Could you tell me which Percent Effect is on file for Cc1ccc(C(=O)N2CCN(Cc3nc(C(C)C)no3)CC2)c(=O)[nH]1 ?
# output 26.1

# input Could you tell me which Percent Effect is on file for Cn1cc(CN2CCn3cc(CNC(=O)C4CCC4)nc3C2)cn1 ?
# output -6.29

# input Could you tell me which Percent Effect is on file for Cn1ccnc1CN1CCN(Cc2cc(C#N)ccc2F)CC1 ?
# output 17.6

# input Could you tell me which Percent Effect is on file for Cc1nc(C)n(C2CCCN(C(=O)c3ccc(N(C)C)nn3)C2)n1 (configuration not stated) ?
# output 11.2

# input Could you tell me which Percent Effect is on file for Cc1cc(CN2CC[C@H]3C[C@H](C)O[C@@H]3C2)no1 ?
# output -1.03

# input Could you tell me which Percent Effect is on file for O=S(=O)(CCNCc1ccc2c(c1)CCO2)N1CCOCC1 ?
# output -25.2

# input Could you tell me which Percent Effect is on file for CC(=O)N1CCn2cc(CNC(=O)c3cccn3C)nc2C1 ?
# output -9.92

# input Could you tell me which Percent Effect is on file for CSc1ccc(-c2nc(CN3CCC(NC(C)=O)C3)c(C)o2)cc1 (configuration not stated) ?
# output -5.95

# input Could you tell me which Percent Effect is on file for CCc1nnc2n1CCN(CCS(=O)(=O)c1ccccc1)C2 ?
# output 8.79

# input Could you tell me which Percent Effect is on file for CC(O)CN1CCN(C(=O)c2ccc(N(C)C)nc2)CC1 (configuration not stated) ?
# output -70

# input Could you tell me which Percent Effect is on file for CCOCCn1nc(C)cc1C(=O)N1CC[C@](C)(O)[C@H](C)C1 ?
# output 4.67

# input Could you tell me which Percent Effect is on file for COCc1cnc2n1CCN(Cc1cccnc1)C2C (configuration not stated) ?
# output -10.3

# input Could you tell me which Percent Effect is on file for CCO[C@@H]1CO[C@@]2(CCCN(C(=O)COc3ccccc3OC)C2)C1 ?
# output -25.3

# input Could you tell me which Percent Effect is on file for Cc1cnc(CN2CCCC(c3cc(C(N)=O)[nH]n3)C2)o1 (configuration not stated) ?
# output 13.4

# input Could you tell me which Percent Effect is on file for Cc1nnc(Nc2cccc(C3CCN(CCO)CC3)n2)s1 ?
# output 2.64

# input Could you tell me which Percent Effect is on file for Cc1nn(C)c(N(C)C)c1CNCc1ccccc1Cn1cncn1 ?
# output 10.9

# input Could you tell me which Percent Effect is on file for Cc1nccc(C2CN(Cc3cc[nH]n3)CCO2)n1 (configuration not stated) ?
# output 2.02

# input Could you tell me which Percent Effect is on file for Cn1cnnc1C1CCCN(C(=O)NCCc2ccccc2F)C1 (configuration not stated) ?
# output 15.6

# input Could you tell me which Percent Effect is on file for COC(=O)C(NC(=O)c1ccco1)c1cc(F)ccc1F (configuration not stated) ?
# output 7.37

# input Could you tell me which Percent Effect is on file for COCC(O)CNC(=O)c1coc(COc2ccc3sc(C)nc3c2)n1 (configuration not stated) ?
# output -20

# input Could you tell me which Percent Effect is on file for COc1ccc(OC)c(NC(=O)N2CCCC2c2ccco2)c1 (configuration not stated) ?
# output 0.199

# input Could you tell me which Percent Effect is on file for O=C(c1ccoc1)N1CCC2(CC1)C(=O)Nc1ccccc12 ?
# output -2.64

# input Could you tell me which Percent Effect is on file for O=C(NCC(=O)N1CCc2ccccc2C1)c1ccoc1 ?
# output -10.2

# input Could you tell me which Percent Effect is on file for c1ccc(CO[C@H]2CO[C@@]3(CCN(Cc4ccoc4)C3)C2)nc1 ?
# output -30.9

# input Could you tell me which Percent Effect is on file for COc1ccc(COCC(O)CNC(=O)c2cnc(C)cn2)cc1 (configuration not stated) ?
# output -32.5

# input Could you tell me which Percent Effect is on file for CO[C@H]1CCN(S(=O)(=O)c2cn(C)cn2)[C@H]1Cc1cccnc1 ?
# output -10.2

# input Could you tell me which Percent Effect is on file for CC(C)NC(=O)N1CCC2(CC(C(=O)NCc3cccnc3)=NO2)C1 (configuration not stated) ?
# output -11.6

# input Could you tell me which Percent Effect is on file for CC(=O)N1CCOC2(CCN(C(=O)c3cnoc3C)CC2)C1 ?
# output 4.56

# input Could you tell me which Percent Effect is on file for O=C(Cc1csc(-c2ccco2)n1)N1CCN(CCO)CC1 ?
# output -23.6

# input Could you tell me which Percent Effect is on file for O=C(NCc1cncc2c1CCN(Cc1cccc(F)c1)C2)C1CC1 ?
# output -32.2

# input Could you tell me which Percent Effect is on file for CCc1nc(CN(C(C)=O)C2CCN(CCc3cnn(C)c3)C2)no1 (configuration not stated) ?
# output -15.6

# input Could you tell me which Percent Effect is on file for Cn1cc(N2C(=O)CC[C@@H]3[C@H]2CCN3Cc2ccncc2)cn1 ?
# output -20.8

# input Could you tell me which Percent Effect is on file for CN(C)C(=O)N1C[C@@H]2CC[C@H](C1)N(C(=O)CCCn1cncn1)C2 ?
# output 4.19

# input Could you tell me which Percent Effect is on file for O=C(CCc1nc2cccnc2[nH]1)NCc1ccc2c(c1)OCO2 ?
# output -41.8

# input Could you tell me which Percent Effect is on file for O=C(Cn1cnnn1)N1CCCCC1Cn1cccn1 (configuration not stated) ?
# output 9.78

# input Could you tell me which Percent Effect is on file for Cc1cccc(C2(CNC(=O)CCNS(C)(=O)=O)CCCC2)c1 ?
# output -8.2

# input Could you tell me which Percent Effect is on file for Cn1cc(C(=O)NC2CCN(C(=O)NCC3CCSCC3)CC2)cn1 ?
# output -2.79

# input Could you tell me which Percent Effect is on file for Cc1cc(C)n(CC2CN(CC(=O)Nc3nncs3)CCO2)n1 (configuration not stated) ?
# output 9.91

# input Could you tell me which Percent Effect is on file for CC(=O)c1cn(CCC(=O)NCCC(=O)O)c2ccccc12 ?
# output -25.1

# input Could you tell me which Percent Effect is on file for CN(C)S(=O)(=O)N1CC[C@@H]2CN(Cc3cnn(C)c3)C[C@@H]2C1 ?
# output -8.71

# input Could you tell me which Percent Effect is on file for CC(=O)NCCc1cc(N2CCN(C(C)=O)CC2)nc(C2CC2)n1 ?
# output -16

# input Could you tell me which Percent Effect is on file for Cc1cnn(C2CCCN(C(=O)c3cnc4ccccc4n3)C2)c1 (configuration not stated) ?
# output 25.1

# input Could you tell me which Percent Effect is on file for COc1ccccc1OCC(=O)N1CCN(Cc2noc(C)n2)CC1 ?
# output 3.27
